Source: patent US20230407373A1

Some molecules, each annotated with its measured background (unweighted spectral count, no-probe control).
Test system: HCoV-OC43 gRNA and sgRNA
Type: binding
Conditions: type n_48_v; 48 hpi; no-probe control on infected cells
Give your answer as a number; write no unit.

HNRNPC (protein, UniProt P07910 2-306, looked up) Heterogeneous nuclear …: ASNVTNKTDPRSMNSRVFIGNLNTLVVKKSDVEAIFSKYGKIVGCSVHKGFAFVQYVNERNARAAVAGEDGRMIAGQVLDINLAAEPKVNRGKAGVKRSAAEMYGSVTEHPSPSPLLSSSFDLDYDFQRDYYDRMYSYPARVPPPPPIARAVVPSKRQRVSGNTSRRGKSGFNSKSGQRGSSKSGKLKGDDLQAIKKELTQIKQKVDSLLENLEKIEKEQSKQAVEMKNDKSEEEQSSSSVKKDETNVKMESEGGADDSAEEGDLLDDDDNEDRGDDQLELIKDDEKEAEEGEDDRDSANGEDDS	19

// below: background (unweighted spectral count, no-probe control) requested for another molecule
# background (unweighted spectral count, no-probe control) of TRA2B: host protein, UniProt P62995 (protein, UniProt P62995 2-288, looked up) Transformer-2 protein homolog …: SDSGEQNYGERESRSASRSGSAHGSGKSARHTPARSRSKEDSRRSRSKSRSRSESRSRSRRSSRRHYTRSRSRSRSHRRSRSRSYSRDYRRRHSHSHSPMSTRRRHVGNRANPDPNCCLGVFGLSLYTTERDLREVFSKYGPIADVSIVYDQQSRRSRGFAFVYFENVDDAKEAKERANGMELDGRRIRVDFSITKRPHTPTPGIYMGRPTYGSSRRRDYYDRGYDRGYDDRDYYSRSYRGGGGGGGGWRAAQDRDQIYRRRSPSPYYSRGGYRSRSRSRSYSPRRY = 2
